Tested on: HepG2
Experiment: cytotoxicity call (relative viability < 0.9)
Details: 10 µM
About 3,300 (8.5%) of roughly 39,000 compounds were called active. For the sample, actives were picked, then their nearest neighbours and some compounds at random.
// one of 1 (active), 0 (inactive), no free text

Below are worked cases with known answers.
CN(Cc1ccc(C(C)(C)C)cc1)Cc1cccc2ccccc12 0
COCC(=O)N1C[C@H](C)[C@@H](OC)CN(C)C(=O)c2cc(NC(=O)Nc3ccccc3)ccc2OC[C@H]1C 0
Cc1cccn2c(=O)c3cc(S(=O)(=O)c4ccc(Br)cc4)c(=N)n(CCCN4CCOCC4)c3nc12 0

Query: Give the logged outcome of this assay for the following molecule: COc1ccc(NC(=O)N(C)C[C@H]2OCCCC[C@H](C)Oc3ccc(NC(=O)Cc4ccccc4)cc3C(=O)N([C@H](C)CO)C[C@H]2C)cc1
Result: 0

Query: Give the logged outcome of this assay for the following molecule: COc1cccc(S(=O)(=O)N2[C@@H]3CC[C@@H](C3)[C@H]2c2nc3cccc(OCc4ccc(F)cc4)c3[nH]2)c1
Result: 1

Query: Give the logged outcome of this assay for the following molecule: Cc1ccc(F)c(S(=O)(=O)N2[C@@H]3CC[C@@H](C3)[C@H]2c2nc3cccc(OCc4ccc(F)cc4)c3[nH]2)c1
Result: 1

Query: Give the logged outcome of this assay for the following molecule: COc1ccc(S(=O)(=O)N(C)C[C@@H]2Oc3ccc(NS(=O)(=O)c4ccccc4)cc3CC(=O)N([C@H](C)CO)C[C@@H]2C)cc1
Result: 0
